target of assay: Fes (UniProt P07332)
Sequence (P07332 whole entry, looked up): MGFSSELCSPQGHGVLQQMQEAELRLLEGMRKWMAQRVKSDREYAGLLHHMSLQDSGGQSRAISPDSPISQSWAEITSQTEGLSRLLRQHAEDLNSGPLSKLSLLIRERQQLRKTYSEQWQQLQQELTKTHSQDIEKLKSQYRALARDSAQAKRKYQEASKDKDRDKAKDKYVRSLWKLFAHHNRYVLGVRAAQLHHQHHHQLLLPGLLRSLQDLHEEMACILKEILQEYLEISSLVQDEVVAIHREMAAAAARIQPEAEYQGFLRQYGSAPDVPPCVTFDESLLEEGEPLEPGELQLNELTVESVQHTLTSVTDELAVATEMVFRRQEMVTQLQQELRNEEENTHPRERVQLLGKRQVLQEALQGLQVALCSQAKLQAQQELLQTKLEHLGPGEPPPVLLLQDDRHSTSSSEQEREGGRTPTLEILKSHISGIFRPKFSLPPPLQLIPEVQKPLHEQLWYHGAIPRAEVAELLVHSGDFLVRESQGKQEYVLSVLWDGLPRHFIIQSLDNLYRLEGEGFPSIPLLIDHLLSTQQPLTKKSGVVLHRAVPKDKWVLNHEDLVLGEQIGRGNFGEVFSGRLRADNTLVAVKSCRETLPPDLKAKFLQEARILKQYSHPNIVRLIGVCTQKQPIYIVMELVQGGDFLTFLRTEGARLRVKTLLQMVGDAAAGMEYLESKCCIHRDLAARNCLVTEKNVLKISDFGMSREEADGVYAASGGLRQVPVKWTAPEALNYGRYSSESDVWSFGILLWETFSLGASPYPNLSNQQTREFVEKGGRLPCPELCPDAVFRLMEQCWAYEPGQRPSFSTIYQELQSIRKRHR
assay: phosphorylation enrichment, bacterial display (enrichment ratio); higher = better substrate or ligand; peptides without Tyr show the background;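 also: 11-residue human phosphosite peptides and single-mutation variants displayed on the E. coli surface, counted by deep sequencing, each peptide's frequency after selection divided by its frequency in the unselected input library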;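 also: frequency after pTyr selection over input frequency; kinase dosed for 20-30% of maximal phosphorylation in three min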
Classes (phosphorylation enrichment): zone 1 (below 0.8), zone 2 (0.8 to below 1), zone 3 (1 or more)

ordered residues: ALETLYKKAVK [CC2D2A_Y381_E376A]
class assignment: zone 2
//
ordered residues: KKDGPYDVVVL [PARK7_Y67_E64D]
class assignment: zone 2
//
ordered residues: DLTQDSEEWKR [ORC6_Y232_Y232S]
class assignment: zone 3
//
ordered residues: CNLDTYQKRLR [PLA2G2D_Y126_R121C]
class assignment: zone 1
//
ordered residues: FISLIYTNFEV [GSTP1_Y109_A114V_YF]
class assignment: zone 3
//
ordered residues: RLCQDYDTIGP [ANK1_Y1073]
class assignment: zone 3
//
ordered residues: VDASYCGGRGV [ANTXR2_Y381_Y381C]
class assignment: zone 1
//
ordered residues: DFPGIYSGFDD [POLR1C_Y33_N32I_YF]
class assignment: zone 3
//
ordered residues: QQTYTYDSGIH [JUP_Y22]
class assignment: zone 3
//
ordered residues: KKFPDYIQSAM [SGMS2_Y59_I62S_YF]
class assignment: zone 1
//
ordered residues: DGFIDYAEFAK [MCFD2_Y138_YF]
class assignment: zone 3
//
ordered residues: MFNPYYGLFEY [NEDD4L_Y680]
class assignment: zone 3
//
ordered residues: IPGRFYETGSI [PAX2_Y73_L69P_YF]
class assignment: zone 1
//
ordered residues: KLQKKYGPIFS [CYP17A1_Y60_YF]
class assignment: zone 1
//
ordered residues: RPFRPYIIRGM [LRP5_Y1531_YF]
class assignment: zone 3
//
ordered residues: QLPRGYISILV [BAG3_Y205_P209L]
class assignment: zone 3
//
ordered residues: RRVLVYGGRGA [QDPR_Y16]
class assignment: zone 1
//
ordered residues: TEYIQYVRRKN [MAX_Y73_M74V]
class assignment: zone 1
//
ordered residues: KDIENYIQDGK [RAD50_Y964]
class assignment: zone 2
//
ordered residues: PIYEGYALPHA [ACTA1_Y171]
class assignment: zone 3
//
ordered residues: KDFTIHNPNLL [VANGL1_Y290_Y290H]
class assignment: zone 2
//
ordered residues: DPEAAYTTRGG [EPHA3_Y779]
class assignment: zone 1
//
ordered residues: SSWPDYVRPLP [HSPB1_Y54_G53D]
class assignment: zone 2
//
ordered residues: PLRANYLIARV [HLCS_Y635_D634N]
class assignment: zone 3
//
ordered residues: NVPILYTASQA [CTNNA1_Y222]
class assignment: zone 1
//
ordered residues: GSTLSYGRDGR [MATR3_Y158_P154S]
class assignment: zone 1
//
ordered residues: NTEGGYCCICA [CRELD1_Y328_R329C]
class assignment: zone 2
//
ordered residues: QITQVYGFFHE [PPP2CA_Y127_D131H_YF]
class assignment: zone 3
//
ordered residues: RLPINYTTRRI [LAMA2_Y2894_G2889R]
class assignment: zone 1
//
ordered residues: LIDSSYLTPTA [GREB1L_Y1063_R1066P]
class assignment: zone 3
//
ordered residues: QTLTDYDIRFF [CSNK2A1_Y131_YF]
class assignment: zone 3
//
ordered residues: SENFTYIWWLN [PSG4_Y271_K267E_YF]
class assignment: zone 3
//
ordered residues: NPQKSCFIRLF [WAS_Y83_Y83C_YF]
class assignment: zone 3
//
ordered residues: SETDDYAEIIV [PTK2_Y397_D402V]
class assignment: zone 3
//
ordered residues: SSSAIYDNPNL [DCP1B_Y191]
class assignment: zone 1
//
ordered residues: HITQVYGFFDE [PPP2CA_Y127_Q122H_YF]
class assignment: zone 3
//
ordered residues: KSIQLYDTPYE [SHB_Y297_G293S]
class assignment: zone 3
//
ordered residues: VEDPEYAVTQP [STOML2_Y124_L129P]
class assignment: zone 3
//
ordered residues: RRKRAYVEIEF [MAK16_Y282_Q277R_YF]
class assignment: zone 2
//
ordered residues: ADAHHYLCKEV [JAK2_Y382]
class assignment: zone 2
//
ordered residues: SLGSPYEQPPR [PDLIM4_Y137_G138E]
class assignment: zone 1
//
ordered residues: VSYDEYRYRSF [CFTR_Y515_V520F]
class assignment: zone 2
//
ordered residues: RLKAKYPAATG [GLI3_Y933_A934P]
class assignment: zone 2
//
ordered residues: SVEELYAIPPD [PEAK1_Y797]
class assignment: zone 3
//
ordered residues: GISDEYHMIRH [GCDH_Y398_V400M]
class assignment: zone 1
//
ordered residues: YRNKPYISWPS [CDC42BPB_Y1638_S1633Y]
class assignment: zone 1
